read-out: Matrix Metallopeptidase 1 (MMP1), MMP1 (gene 4312); assay: BSK_BE3C_MMP1: BioMAP Diversity Plus: BE3C Assay for Matrix Metallopeptidase 1 (MMP1) Biomarker Activity (AID 2283024); details: primary human bronchial epithelial cells; actives raise or lower the signal
Calls of active or inactive are those of the source. Rule for the calls: active = hit-call score of the fitted dose curve at least 0.9, where 1 is the maximum; inactive = score below 0.9.
Hello, when you answer, please use one of the following outcomes: yes (active), no (inactive)

| compound | assigned.class |
| --- | --- |
| O=C(O)Cc1cc(I)c(Oc2cc(I)c(O)c(I)c2)c(I)c1 | no |
| CC[C@H](c1ccc(O)cc1)[C@@H](CC)c1ccc(O)cc1 | yes |
| Cc1cc(CCN2CCN(c3nsc4ccccc34)CC2)cc2c1NC(=O)CC2(C)C | yes |
| CCCCCCCC(=O)O | no |

Which result was noted for this compound in the test: CCc1nn(C2CCCCC2)c2cc(C3(C#N)CCC(C(=O)O)CC3)ccc12 (stereo not given)
no

Query `CCCCCCCCCCCCCC[N+](C)(C)C` next
yes

Query `COC(=O)CCCCC(=O)OC` next
no

Query `COc1ccc([N+](=O)[O-])cc1N` next
no

Query CC(O)CO (stereo not given) next
no
